Each record here notes measured pKd.
- target: RSV prefusion F (preF), subtype B (respiratory syncytial virus, subtype B)
- assay_notes: BLI, IgG
In simple prose, pKd is minus the logarithm base ten of a concentration in moles per litre.

Field: example entries. Status: answers known.
- binder: "ADI-20980 (antibody, V domains shown) VH: QVQLQESGPGLVKPSQTLSLTCSVSGGSVSSGDYYWTWIRQPAGKGLEWIGRIYNSGGTDYSPSLKSRVTISVDTSKNQFSLKLSSVTAADTAVYYCARGRGYYESPWGQGTLVTVSS VL: EIVLTQSPATLSLSPGERATLSCRASQSVGIYIGWYQQKPGQAPRLLMYDASNRATGIPDRFSGSGSGTDFSLTISSLEPEDFAVYYCQLRSKWLTFGPGTKVEIK"
  numeric_value: 9.27
- binder: "ADI-14578 (antibody, V domains shown) VH: QVQLVQSGAEVKKPGSSVKVSCKASGGTFNNYAINWVRQAPGQGLEWMGGIIPMFGTANYAQKFQGRVTMTADESTSTAYMELSSLRSEDTAVYYCASSQIFVGGNYYKLEFDNWGQGTLVTVSS VL: QSVLTQPPSVSAAPGQKVTISCSGSNSNIGYNDVSWYQQLPGTAPQLLIYDNNKRTSGIPDRFSGSKFGTSATLGITGLQTGDEADYYCGTWDSSLSTVIFGGGTKLTVL"
  numeric_value: 8.40
- binder: "ADI-21032 (antibody, V domains shown, also called Ab 280) VH: EVQLVESGGGLVKPGGSLRLSCAVSGFKFSSYTMNWVRQAPGKGLEWVSSVSASSSYIFYADSVQGRFIISRDNAQNSLYLQMNSLRADDTAVYYCTRDQYGPGHYYNPAWFDPWGQGTLVTVSS VL: QPVLTQPPSASGAPGQRVTISCTGSSSNIGAGYDVHWYQQLPGTAPKVLIYGNTNRPSGIPDRFSGSKSGTSASLAIIGLQAEDEADYYCQSYDRNGSKVFGTGTKLTVL"
  numeric_value: 9.46
- binder: "ADI-21054 (antibody, V domains shown) VH: QVQLVESGGGVVQPGRSLRLSCAASGFSFSNYGMHWVRQAPGKGLEWVVGISFDGSYIFHGGSVTGRFNISRDNSKNTLYLQVNSVRAEDTAVYYCARDPQYYDDWSGYSGLLHYYLYMDVWGKGTTVTVSS VL: DIQLTQSPSTLSASVGDRVTITCRASQSIGTSLAWYQQIPGKAPKLLIYRASSLESGVPSRFSGGGSGTQFTLTISSLQPDDFATYYCQQYNNYSPTFGQGTKLEIK"
  numeric_value: 9.86

Read the next record carefully.
Given ADI-21021 (antibody, V domains shown, also called Ab 270) VH: QVQLQQWGAGLLKPSETLSLTCAVHGGSFSGFYWSWIRQSPGKGLEWIAEINDSGNTNHNPSLKSRVTISIDTSKNQFSLNVSSVTAADTAVYYCAKNGGGHHYVGTLRFRSRAFDIWGQGTMVTVSS VL: EIVMTQSPSTLSASVGDRVTITCRASQSIGNRLAWYQQKPGKAPKLLISLASGLETGVPSRFSGSGSGTEFTLTITSLQPDDFATYYCQQYSSYGTFGQGTKLEIK , state its recorded pKd.
8.35
